Numbers sourced from patent US10206398B2.

- test_protocol: log P determination by HPLC on reversed-phase columns (C 18), analogous to OECD Guideline 117
- Type: physicochemical
- assay_setup: method [b]
endpoint: logP[b]
Respond numerically, and do not add a unit to the figure.

[Q] // fetch logP[b] given entry Cc1cc(F)c(N2C(=O)CN(C(=O)NC(C)C)C2=O)cc1[S+]([O-])CC(F)(F)F (stereo not drawn)
[A] 2.38

[Q] Please list logP[b] recorded for the molecule `Cc1cc(Cl)c(N2C(=O)CN(C(=O)NCC(F)(F)F)C2=O)cc1SCC(F)(F)F`
[A] 3.40

[Q] Please give the documented logP[b] of CCNC(=O)N1CC(=O)N(c2cc([S+]([O-])CC(F)(F)F)c(C)cc2C)C1=O (stereo not drawn)
[A] 2.12

[Q] Consider the molecule `Cc1cc(C)c(N2C(=O)CN(C(=O)NC3CC3)C2=O)cc1SCC(F)(F)F` . State its measured logP[b].
[A] 2.81

[Q] Complete the entry with logP[b] for `CCNC(=O)N1CC(=O)N(c2cc(SCC(F)(F)F)c(Cl)cc2Cl)C1=O`
[A] 3.26

[Q] Output measured logP[b] for this item: Cc1cc(F)c(N2C(=O)CN(C(=O)NCc3ccccc3)C2=O)cc1[S+]([O-])CC(F)(F)F (stereo not drawn)
[A] 2.71

Others:
[Q] Provide one value: measured logP[b] of CC(C)CNC(=O)N1CC(=O)N(c2cc([S+]([O-])CC(F)(F)F)c(Cl)cc2Cl)C1=O (racemic)
[A] 3.28

[Q] Could you please provide reported logP[b] for Cc1cc(F)c(N2C(=O)CN(C(=O)N(C)CC(C)C)C2=O)cc1[S+]([O-])CC(F)(F)F (stereo not drawn) ? Thanks!
[A] 2.66

[Q] Please list logP[b] recorded for the molecule `COCCNC(=O)N1CC(=O)N(c2cc(SCC(F)(F)F)c(C)cc2F)C1=O`
[A] 2.76

----------
- test_protocol: log P determination by HPLC on reversed-phase columns (C 18), analogous to OECD Guideline 117
- Type: physicochemical
- assay_setup: method [b]
Listed molecules paired with reported logP[b]
Give your answer as a number; write no unit.

The examples below pair each entry with its known result.
[Q] Input O=C(Nc1cccc(Cl)c1)N1CC(=O)N(c2cc([S+]([O-])CC(F)(F)F)c(Cl)cc2Cl)C1=O (racemic) , output reported logP[b].
[A] 3.89

[Q] State, in one line, measured logP[b] of Cc1cc(C)c([S+]([O-])CC(F)(F)F)cc1N1C(=O)CN(C(=O)NC2CC2)C1=O (centres unmarked)
[A] 2.17

[Q] Tell me its logP[b] given `Cc1cc(C)c(N2C(=O)CN(C(=O)NC(C)(C)C)C2=O)cc1SCC(F)(F)F` as the entry.
[A] 3.89

[Q] Fill in logP[b] for record Cc1cc(F)c(N2C(=O)C(C)N(C(=O)NC(C)C)C2=O)cc1SCC(F)(F)F (centres unmarked)
[A] 3.68

Here's the next entry for you.
[Q] Item Cc1cc(F)c(N2C(=O)CN(C(=O)NC(C)C)C2=S)cc1[S+]([O-])CC(F)(F)F (centres unmarked) : provide logP[b]
[A] 2.93

----------
The reader will find reported logP[a] values listed item by item below.
- test_protocol: log P determination by HPLC on reversed-phase columns (C 18), analogous to OECD Guideline 117
- Assay type: physicochemical
- assay_setup: method [a]
- Description: The log P values were determined analogously to OECD Guideline 117 (EC Directive 92/69/EEC) by HPLC (high-performance liquid chromatography) using reversed-phase columns (C 18), by the following methods: [a] […] Calibration is effected with solutions of a homologous series of unbranched alkan-2-ones (having 3 to 16 carbon atoms) with known log P values (log P values determined on the basis of the retention times by linear interpolation between two successive alkanones).
Field format: numeric only.

Some compounds with known logP[a] results, for comparison:
[Q] Find the measured logP[a] of `Cc1cc(F)c(N2C(=O)CN(C(=O)N(C)C3CC3)C2=O)cc1SCC(F)(F)F` and report it.
[A] 2.99

[Q] Quickly give me recorded logP[a] for Cc1cc(F)c(N2C(=O)CN(C(=O)NCC3CCCO3)C2=O)cc1SCC(F)(F)F (racemic)
[A] 2.99

Proceed to the following item.
[Q] Supply reported logP[a] belonging to this compound: Cc1cc(F)c(N2C(=O)N(C(=O)NCC(F)(F)F)C(C)(C)C2=O)cc1[S+]([O-])CC(F)(F)F (racemic)
[A] 3.07
